The measurements presented in this section are drawn from paper PMC4629852.

experimental.target: VHL complex (Homo sapiens, UniProt P40337)
experiment.summary: Competitive binding fluorescence polarization vs HIF1α-derived peptide
condition: competition with HIF1α-derived peptide for VHL complex

mol | IC50
Cc1ncsc1-c1ccc(CNC(=O)[C@@H]2C[C@@H](O)CN2C(=O)[C@@H](NC(=O)COCCOCCOCCOCCOc2cc3nccc(Nc4ccc5scnc5c4)c3cc2S(=O)(=O)C(C)(C)C)C(C)(C)C)cc1 | 660 nM
